# EXPERIMENT SUMMARY: gradient 5% acetonitrile 3 min, to 50% in 2 min, to 85% in 15 min, held 3 min, 100 µL/min
# EXPERIMENTAL PARAMETERS: column: Zorbax Extend-C18 2.1 x 50 mm; eluents: water / acetonitrile, 0.1% formic acid
Doc: threshold 800 s (exclusive). Items with RP-LC retention time beneath it return True; others return False.

[
  {
    "COMPOUND": "CCCOc1ccc(CNC(=O)C2CCc3nc(N4CCCCC4)ncc3C2)cc1 (stereo not given)",
    "ASSIGNED LABEL": "False"
  },
  {
    "COMPOUND": "Cc1nc(OCC(=O)NCCN2CCCC2)c2c(-c3ccccc3)noc2n1",
    "ASSIGNED LABEL": "True"
  },
  {
    "COMPOUND": "CN1CC2(CCCC2)N(C(=O)COc2ccc(F)cc2)CC1=O",
    "ASSIGNED LABEL": "True"
  },
  {
    "COMPOUND": "Cc1cc(C)n(-c2ccnc(N3CCC(C(=O)NCc4ccccn4)CC3)n2)n1",
    "ASSIGNED LABEL": "True"
  },
  {
    "COMPOUND": "O=C(NCCc1nc2cccnc2n1Cc1ccccc1)NCc1ccc(F)cc1",
    "ASSIGNED LABEL": "True"
  },
  {
    "COMPOUND": "CCOc1cc(=O)n2c(c1C(=O)NCCCOC(C)C)CCCCC2",
    "ASSIGNED LABEL": "True"
  },
  {
    "COMPOUND": "CCCNC(=O)C1CCCN(c2ccc(SCC(=O)Nc3ccc(Br)cc3)nn2)C1 (stereo not given)",
    "ASSIGNED LABEL": "True"
  },
  {
    "COMPOUND": "CCc1ccc2c(c1)-c1ccccc1S(=O)(=O)N2CC(=O)N1CCN(CC)CC1",
    "ASSIGNED LABEL": "True"
  },
  {
    "COMPOUND": "Cc1ccc2c(Nc3ccc4c(c3)OCCO4)c(C(=O)N3CCCC(C)C3)cnc2n1 (stereo not given)",
    "ASSIGNED LABEL": "True"
  },
  {
    "COMPOUND": "CCc1ccccc1NC(=O)N1CC(n2cc(COCC3CC3)nn2)C1",
    "ASSIGNED LABEL": "True"
  },
  {
    "COMPOUND": "Cc1nc(-c2ccccc2F)sc1C(=O)NC1CC1",
    "ASSIGNED LABEL": "False"
  },
  {
    "COMPOUND": "COc1cccc(CN2CC[C@@H]3CN(S(C)(=O)=O)[C@@H]3C2)n1",
    "ASSIGNED LABEL": "True"
  }
]

These entries and their values trace back to the METLIN SMRT retention time set (Domingo-Almenara et al. 2019).
